- MEASURED TARGET: GRK4 (human)
- TEST: KINOMEscan competition binding
- CONDITION NOTES: compound 10.0 µM
MEASURE NAME: kinase still bound, per cent of control (%)
Give bare numbers, in %.

Worked set:
line_notation=CN(C)C/C=C/C(=O)Nc1ccc(C(=O)Nc2cccc(Nc3nccc(-c4cccnc4)n3)c2)cc1 measured_target="GRK4 (human)" measure_name="kinase still bound, per cent of control" quantitative_result=29
line_notation=COc1cc(C(=O)N2CCC(N3CCN(C)CC3)CC2)ccc1Nc1ncc2c(n1)N(C)c1ccccc1C(=O)N2C measured_target="GRK4 (human)" measure_name="kinase still bound, per cent of control" quantitative_result=86
line_notation=COc1ccc(N(C(=O)Oc2c(C)cccc2C)c2ccnc(Nc3ccc(N4CCN(C)CC4)cc3)n2)c(OC)c1 measured_target="GRK4 (human)" measure_name="kinase still bound, per cent of control" quantitative_result=7.9

Please state kinase still bound, per cent of control for every compound in the list that follows.
1. COc1cc(N2CCN(C)CC2)ccc1Nc1ncc2c(n1)N(C)c1ccccc1C(=O)N2C
2. CCN(CC)CCCCNc1ncc2c(n1)N(C)C(=O)N(c1c(Cl)c(OC)cc(OC)c1Cl)C2
3. O=c1cc(N2CCOCC2)oc2c(-c3cccc4c3sc3ccccc34)cccc12
4. CS(=O)(=O)N1CCN(Cc2cc3nc(-c4cccc5[nH]ncc45)nc(N4CCOCC4)c3s2)CC1
5. NC(=O)Nc1cc(-c2cccc(F)c2)sc1C(=O)N[C@@H]1CCCNC1
6. COc1cc2ncnc(-n3nc(-c4ccccn4)nc3N)c2cc1OC

Output:
[100, 100, 100, 100, 0, 39]
